# Test system: Raji or Daudi cells
# Procedure details: Toxicity run with the EBV assay
# Assay type: cell-based, human
# Condition info: Table II
For each record, write down the corresponding EBV IC50.

The cases that follow already have their EBV IC50 on record.
compound="CCCc1cc(=O)oc2c3c(c4c(c12)OC(C)(C)C=C4)OC(CC)C(C)C3=O (racemic) [(±)-15c]" val=">50 µg/mL"
compound="CCCc1cc(=O)oc2c3c(c4c(c12)OC(C)(C)C=C4)OC(C)C(C)C3=O (single isomer, unassigned; (-)) [(−)-7]" val="23.7 µg/mL"
compound="CCCc1cc(=O)oc2c3c(c4c(c12)OC(C)(C)C=C4)O[C@@H](C)[C@H](C)[C@@H]3O [(−)-calanolide B, (-)-Calanolide B]" val=">50 µg/mL"
compound="CCCc1cc(=O)oc2c3c(c4c(c12)OC(C)(C)C=C4)OC(C)C(C)C3=O (racemic) [(±)-7a]" val=">50 µg/mL"
compound="CCCc1cc(=O)oc2c3c(c4c(c12)OC(C)(C)CC4)OC(C)C(C)C3=O (racemic) [(±)-18a]" val=">50 µg/mL"
compound="CCCc1cc(=O)oc2c3c(c4c(c12)OC(C)(C)C=C4)OC(C(C)C)C(C)C3=O (racemic) [(+)-15e]" val=">50 µg/mL"

Would you mind listing EBV IC50 for each of the following compounds?
1. CCCc1cc(=O)oc2c3c(c4c(c12)OC(C)(C)C=C4)O[C@@H](C)[C@H](C)[C@H]3O [(−)-1, (-)-Calanolide A]
2. CCCc1cc(=O)oc2c3c(c4c(c12)OC(C)(C)CC4)OC(C)C(C)C3=O (single isomer, unassigned; (+)) [(+)-18a]
3. CC1Oc2c3c(c4c(-c5ccccc5)cc(=O)oc4c2C(O)C1C)OC(C)(C)C=C3 (single isomer, unassigned; (-)) [(−)-24]

a:
[">100 µg/mL", ">50 µg/mL", ">50 µg/mL"]

q: Would you kindly share the measured EBV IC50 for CCCc1cc(=O)oc2c3c(c4c(c12)OC(C)(C)C=C4)OCC(C)C3=O (racemic) [(±)-15f] ?
a: >50 µg/mL

====

# Test system: human foreskin fibroblast cells
# Procedure details: Toxicity run with the HCMV assay, human foreskin fibroblast cells
# Format: cell-based
# Condition info: Table II
Measured parameter: HCMV IC50 (µg/mL)
One number for each entry, in µg/mL.

compound="CCCc1cc(=O)oc2c3c(c4c(c12)OC(C)(C)CC4)OC(C)C(C)C3=O (racemic) [(±)-18a]" study_system="human foreskin fibroblast cells" val=19.5

Report HCMV IC50 for every entry below.
1. CCCc1cc(=O)oc2c3c(c4c(c12)OC(C)(C)C=C4)OC(CC)C(C)C3=O (racemic) [(±)-15c]
2. CCCc1cc(=O)oc2c3c(c4c(c12)OC(C)(C)C=C4)O[C@@H](C)[C@H](C)[C@@H]3O [(−)-calanolide B, (-)-Calanolide B]
3. CC1Oc2c3c(c4c(-c5ccccc5)cc(=O)oc4c2C(O)C1C)OC(C)(C)C=C3 (single isomer, unassigned; (-)) [(−)-24]
4. CCCc1cc(=O)oc2c3c(c4c(c12)OC(C)(C)C=C4)OC(C)C(C)C3=O (single isomer, unassigned; (-)) [(−)-7]

a:
[77.6, 78.4, 14.4, 23.7]

====

# Test system: 2.2.15 cells
# Procedure details: Toxicity in 2.2.15 cells, neutral red dye uptake
# Format: cell-based, human
# Condition info: Table IV, HBV Virion columns; read-out: HBV Virion IC50
# Description: Cells of 2.2.15 were grown to confluence in 96-well flat-bottomed tissue culture plates and treated with compounds (in 0.2 mL culture medium/well) as described above. Four concentrations of each compound were assayed, each in triplicate cultures, in 3- to 10-fold steps. Untreated control cultures were maintained on each 96-well plate. On each 96-well plate, wells containing no cells were used to correct for light scattering.
Measured parameter: pIC50
Numbers only, as −log10 of the molar value.

q: // pIC50 lookup, key: CCCc1cc(=O)oc2c3c(c4c(c12)OC(C)(C)C=C4)OCC(C)C3=O (racemic) [(±)-15f]
a: 3.52

====

Please go through the items and note down their pEC50.
# System: HBV
# Procedure details: HBV replication in cultures of 2.2.15 cells, extracellular HBV virion DNA (primary assay)
# Condition info: read-out: HBV EC50; Table II
pEC50: −log10 of the molar value.

Below are worked cases with known answers.
compound="CCCc1cc(=O)oc2c3c(c4c(c12)OC(C)(C)C=C4)O[C@@H](C)[C@H](C)[C@@H]3O [(−)-calanolide B, (-)-Calanolide B]" val="< 5.00"
compound="CCCc1cc(=O)oc2c3c(c4c(c12)OC(C)(C)C=C4)OC(C)C(C)C3=O (single isomer, unassigned; (-)) [(−)-7a]" val="< 5.00"

Record pEC50 per entry; entries follow.
1. CCCc1cc(=O)oc2c3c(c4c(c12)OC(C)(C)C=C4)O[C@@H](C)[C@H](C)[C@H]3O [(−)-1, (-)-Calanolide A]
2. CCCc1cc(=O)oc2c3c(c4c(c12)OC(C)(C)C=C4)OC(C)C(C)C3=O (racemic) [(±)-7a]
3. CC1Oc2c3c(c4c(-c5ccccc5)cc(=O)oc4c2C(O)C1C)OC(C)(C)C=C3 (single isomer, unassigned; (-)) [(−)-24]
4. CCCc1cc(=O)oc2c3c(c4c(c12)OC(C)(C)C=C4)OC(CC)C(C)C3=O (racemic) [(±)-15c]

a:
1: < 4.52; 2: 4.36; 3: < 5.00; 4: < 5.00

// batch mode: one pEC50 value per listed entry
1. CCCc1cc(=O)oc2c3c(c4c(c12)OC(C)(C)C=C4)OCC(C)C3=O (racemic) [(±)-15f]
2. CCCc1cc(=O)oc2c3c(c4c(c12)OC(C)(C)C=C4)OC(C(C)C)C(C)C3=O (racemic) [(+)-15e]
3. CCCc1cc(=O)oc2c3c(c4c(c12)OC(C)(C)CC4)OC(C)C(C)C3O (single isomer, unassigned; (-)) [(−)-23]

a:
1: 6.17; 2: < 5.00; 3: 5.46

Provide the reported pEC50 of each entry below, same order.
1. CCCc1cc(=O)oc2c3c(c4c(c12)OC(C)(C)C=C4)OC(C)C(C)C3=O (single isomer, unassigned; (-)) [(−)-7]
2. CCCc1cc(=O)oc2c3c(c4c(c12)OC(C)(C)CC4)OC(C)C(C)C3=O (single isomer, unassigned; (+)) [(+)-18a]
3. CCCc1cc(=O)oc2c3c(c4c(c12)OC(C)(C)CC4)OC(C)C(C)C3=O (racemic) [(±)-18a]

a:
1. < 5.00
2. < 5.00
3. < 5.00

====

# System: 2.2.15 cells
# Procedure details: Toxicity in 2.2.15 cells, neutral red dye uptake
# Type: cell-based, human
# Condition info: Homo sapiens; Table IV, HBV Virion columns; read-out: HBV Virion IC50
Measured parameter: IC50 (µM)
Numbers only, in µM.

q: I have this compound here, CCCc1cc(=O)oc2c3c(c4c(c12)OC(C)(C)C=C4)OC(C)C(C)(C)C3=O (racemic) [(±)-15a] , and I need its recorded IC50.
a: 1790

====

# Tested on: measles
# Procedure details: Measles virus inhibition of viral CPE in BSC-1 cells
# Assay type: cell-based
# Condition info: Table II footnote g; read-out: Others EC50, against measles
Measured parameter: pEC50
Numbers only, as −log10 of the molar value.

q: Using the record for CCCc1cc(=O)oc2c3c(c4c(c12)OC(C)(C)C=C4)OC(C)C(C)C3=O (racemic) [(±)-7a] , report its pEC50.
a: 4.86

====

# Test system: CEM-SS cells
# Procedure details: CEM-SS MTT assay, cytotoxicity (Table I)
# Type: cell-based, human
# Condition info: Homo sapiens
Measured parameter: pIC50
Give bare numbers, as −log10 of the molar value.

Respectfully, I request pIC50 for each entry included below.
1. CCCc1cc(=O)oc2c3c(c4c(c12)OC(C)(C)C=C4)OC(C)(C)C(C)C3=O (racemic) [(±)-15b]
2. CCCc1cc(=O)oc2c3c(c4c(c12)OC(C)(C)C=C4)O[C@H](C)[C@@H](C)C3=O [(+)-7]

a:
4.68
4.14

For each listed entry, give its pIC50.
1. CCCc1cc(=O)oc2c3c(c4c(c12)OC(C)(C)C=C4)OC(C)C(C)(C)C3=O (racemic) [(±)-15a]
2. CCCc1cc(=O)oc2c(C(=O)[C@@H](C)[C@@H](C)O)c(O)c3c(c12)OC(C)(C)C=C3 (relative stereo) [(±)-8a]
3. CCCc1cc(=O)oc2c3c(c4c(c12)OC(C)(C)C=C4)O[C@@H](C)C(C)=C3
4. CCCc1cc(=O)oc2c(C(=O)[C@@H](C)[C@H](C)O)c(O)c3c(c12)OC(C)(C)C=C3 (relative stereo) [(±)-8b]

a:
1. 4.71
2. 4.62
3. 4.61
4. 4.67
